System: MS2 coat protein
Experiment: apparent KD of MS2 coat protein; designed switch direction (-1 OFF switch, 1 ON switch): 1; higher = weaker reporter binding
Conditions: input ligand: none
Give apparent KD of MS2 coat protein for every item shown.

>>> assay_result("UAUUAGAUCCGAGGAUAUCCUUAUAAGAAACAUGAGGAUCACCCAUGUAAAGGGAAUUAUUUGUAGGAGAAGGCGGAUUUAGUU [JR_SSNG2_Sub055] (Eterna round: R96, puzzle: Same State NG 2)")
"41.3 nM"

Would you mind giving apparent KD of MS2 coat protein for every sequence in the list below?
1. GUAGCAUACCGAGGAUAUUCAUAUUAUAACAUGAGGAUCACCCAUGUUGGCCGAUUACGGCCUUGGGAGAAGGCGGAAUGCUAC [Xeonanis - 20 Mod18] (Eterna round: R96, puzzle: Same State NG 2)
2. UGUCGUUGCAGAGGAUAUGGGAACUCGAUGCCGUAAGGUAUCAUAACAUGAGGAUCACCCAUGUCCCAGAAGGCUGCAGCAAGC [Leatve Mod] (Eterna round: R96, puzzle: Same State NG 2)

1. 84.3 nM
2. 235 nM
